Where do these numbers come from? They come from ChEMBL document CHEMBL3507680.

Assay: Human HepG2 cell viability assay in 384 well format
Type: toxicity, cell-based
Parameters: dose 125 nL, time 70.5 hour; concentration not given beside the values
Settings: HepG2 cells, read-out: Inhibition
Provide the reported cytotoxicity at 70.5 h of each item.
Answers are plain numbers, in %.

Worked cases, answers included:
O=C(CCS(=O)(=O)c1ccccc1)NCCCn1cccn1 | -16.1
CS(=O)(=O)NCCNC(=O)NC1(c2ccc(Cl)cc2)CCC1 | 16.5

Consider the following items and state reported cytotoxicity at 70.5 h for each.
1. OCC1CCCN1c1cc(NCCc2ccccn2)ncn1 (configuration not stated)
2. c1ccc(OCCCN2CCN(c3ccc4nncn4n3)CC2)cc1
3. Cc1nc2n(n1)CC(NCc1nc(-c3cccs3)no1)CC2 (configuration not stated)
4. Cc1ccc(CNCc2nccn2C)c(OC(C)(C)C)c1
5. COCc1nn(C(C)C)c2c1CCN(Cc1ccccn1)C2
6. COc1ccccc1OC1CCN(C(=O)C2CCCN(C)C2)CC1 (configuration not stated)
7. Cc1ccc(S(=O)(=O)N2CCOCC2C(N)=O)c(F)c1 (configuration not stated)

Resp:
1: 14.5; 2: 2.05; 3: 0.591; 4: -7.39; 5: -3.77; 6: -8.14; 7: -8.93

Record cytotoxicity at 70.5 h for all entries; do not skip any.
1. Cc1c(NC(=O)N(C)CCn2cnnc2)cccc1OC1CCCC1
2. CC(=O)N(C)Cc1cccc(NC(=O)c2cnn(C)c2C)c1

Resp:
1: -4.56; 2: 22

Req: Find the measured cytotoxicity at 70.5 h of CC(C)c1cc(C(=O)O)nc2[nH]c(=O)[nH]c(=O)c12 and report it.
Resp: -15.1
